binders and their reported EC50
- TESTED_SYSTEM: HIV-1 MN gp41 recombinant protein produced in E. coli (565-771Delta642-725) (HIV-1 MN)
- EXPERIMENT_DESCRIPTION: ELISA
Field: numeric (µg/mL). Do not append units.

State its EC50 for this binder: anti-PEP3 mAb 8D5 (antibody, V domains shown) VH: QVQLQQPGAELIEPGTSVKLSCKASGYTFTTYWMHWVKQRPGQGLEWIGMIHPNSGDTFYNENFKNKATLTVDISSSTVYMELSSLTSEDSAVYSCVKAGTGALDYWGQGTTLTVSS VL: DVVMTQTPLSLPVSLGDQASISCRSSQSIVHSNRYTYLEWYLQRPGQSLKLLIYGVSNRFSGVPDRFSGSGSGTDFILKISRVEAEDMGVYYCFQGTHVPFTFGSGTKLEIK
0.02

# return recorded EC50 for entry anti-PEP3 gp41 mAb 4G1 (antibody, V domains shown) VL: DVVMTQTPLSLCVSLGDQASISCRTSQSIVHSNRYTYLEWYLQKPGQPLKLLIYGIANRFSGVPDRFSGSGSGTDFTLKISRVEAEDMGVYYCLQGTHVPFTFGSGTKLEIK V domain: QVQLQQPGAELVKPGASVKLSCKASGYIFRNYWMHWVKQRPGQGLEWIGMIHPNSDITHYNEKFKNRATLTVDKSSSTAYMQLNSLTSEDSAVYYCARGGLGVFDYWGQGTALRVSS
0.005

Given anti-PEP3 mAb 3A2 (antibody, V domains shown) VH: QVQLQQPGAELVKPGASVKLSCKASGYIFTNYWMHWVRQRPGQGPEWIGMIHPNRGDLHYSEKFNNKATLTVDKSSSTAYMQLNSLASEDSAVYFCARAGLGVFDYWGQGSTLTVSS VL: DVVMTQTPLSLPVSLGDQVSMSCRSSQSIEHSNRNTYLEWYLHKPGQAPQLLIYGVSNRFTGVPDRFSGSGSGTDFTLKISRVEAEDMGVYHCLQGTHVPFTFGSGTKLEIK , respond with its EC50.
0.02
